TARGET: Oxysterols receptor LXR-beta (Homo sapiens)
EXPERIMENT: Agonist activity at LXR-beta in human whole blood assessed as ABCA1 gene induction by measuring ABCA1 mRNA level after 4 hrs by SYBR-Green dye-based Q-PCR analysis relative to pan agonist 2-(4-(5-(5-cyano-1-(2,4-difluorobenzyl)-6-oxo-4-(trifluoromethyl)-1,6-dihydropyridin-2-yl)thiophen-2-yl)-3-methylphenyl)acetic acid
Type: tissue-based
TEST_READOUT: Efficacy (%)

>>> df
                            chemical_string  endpoint_unit  result_number
0  CC(C)(O)c1cn(-c2ccc(-c3cc(F)c(CO)c(S(C)(=O)=O)c3)cc2F)c(C(C)(C)c2c(F)cccc2Cl)n1              %             33
1  CC(C)(O)c1cn(-c2ccc(-c3cccc(S(C)(=O)=O)c3)cc2)c(C(C)(C)c2ccccc2Cl)n1              %             55
2  CC(C)(O)c1cn(-c2ccc(-c3cc(F)c(CO)c(S(C)(=O)=O)c3)cc2)c(C(C)(C)c2ccccc2Cl)n1              %             47
3  CC(C)(O)c1cn(-c2ccc(-c3cc(F)c(CO)c(S(C)(=O)=O)c3)cc2Cl)c(C(C)(C)c2c(Cl)cccc2Cl)n1              %             16

* * *

TARGET: Oxysterols receptor LXR-beta (Homo sapiens)
EXPERIMENT: Agonist activity at human LXR-beta expressed in African green monkey CV1 cells measured after 18 to 20 hrs by luciferase reporter gene assay relative to pan agonist 1-(2,4-difluorobenzyl)-2-oxo-6-(4-phenoxyphenyl)-4-(trifluoromethyl)-1,2-dihydropyridine-3-carbonitrile
Format: cell-based
MEASUREMENT_PARAMETERS: CV-1
TEST_READOUT: Efficacy (%)

                                   compound  endpoint_unit  result_number
0  CC(C)(O)c1cn(-c2ccc(-c3cc(F)c(CO)c(S(C)(=O)=O)c3)cc2)c(C(C)(C)c2c(Cl)cccc2Cl)n1              %             72
1  CC(C)(O)c1cn(-c2ccc(-c3cc(F)c(CO)c(S(C)(=O)=O)c3)cc2Cl)c(C(C)(C)c2c(Cl)cccc2Cl)n1              %             51
2  CC(c1c(Cl)cccc1Cl)c1nc(C(C)(C)O)cn1-c1ccc(-c2cc(F)c(CO)c(S(C)(=O)=O)c2)cc1F (configuration not stated)              %             67
3  CC(C)(O)c1cn(-c2ccc(-c3cc(F)c(CO)c(S(C)(=O)=O)c3)cc2F)c(C(C)(C)c2c(Cl)cccc2Cl)n1              %             88
4  CC(C)(O)c1cn(-c2ccc(-c3cc(F)c(CO)c(S(C)(=O)=O)c3)cc2)c(C(C)(C)c2ccccc2F)n1              %             68
5  CC(O)c1ccc(-c2ccc(-n3cc(C(C)(C)O)nc3C(C)(C)c3ccccc3Cl)cc2)cc1S(C)(=O)=O (configuration not stated)              %             93
6  CC(C)(O)c1cn(-c2ccc(-c3cc(F)c(CO)c(S(C)(=O)=O)c3)cc2)c(C(C)(C)c2cccc(F)c2Cl)n1              %             68
